# Lookup of reported TGI keyed by entry
system: BT-549 breast; test: NCI tumour cell line growth inhibition, 48 h
A number alone suffices; assume µM.

# example entries with known answers
molecule	measure	measure unit	measured number
CCCN(CCC)C(=S)N/N=C/c1ccccn1	TGI	µM	22.5
C=C1C(=O)O[C@H]2[C@H]1CC/C(C=Nc1c(N)cc(C(F)(F)F)cc1C(F)(F)F)=C\CC[C@@]1(C)O[C@@H]21	TGI	µM	3.17

Please look at the following molecule next.
Query: What does the data say about its TGI? Entry: CCN(CC)C1CCC(C2c3cc4c(cc3OC(N3CCOCC3)C2C)OCO4)CC1 (stereo not given)
Result: 84.1

---

test system: RXF 393 renal; experiment: NCI tumour cell line growth inhibition, 48 h
measure: log10 of TGI (log10 of the value in µM)
Recorded TGI (log10, µM)

# example entries with known answers
compound	measured number
CCCNCC(=O)O[C@]1(CC)C(=O)OCc2c1cc1n(c2=O)Cc2cc3ccccc3nc2-1	-0.41
Cn1ncc2c(Nc3cccc(Cl)c3)nc(Nc3cccc(Cl)c3)nc21	1.06

Please look at the following compound next.
Query: Form field: log10 of TGI recorded for C=C1C(=O)O[C@H]2[C@H]1CC/C(C=Nc1c(N)cc(C(F)(F)F)cc1C(F)(F)F)=C\CC[C@@]1(C)O[C@@H]21 with RXF 393 renal (enter value)
Result: 0.44

---

test system: M14 melanoma; experiment: NCI tumour cell line growth inhibition, 48 h
measure: TGI

compound	TGI
O=c1/c(=C/c2ccc([N+](=O)[O-])o2)sc2n1[C@@H](c1ccc(Cl)cc1)C=C(c1cc(F)c(Cl)cc1Cl)N=2	29.1 µM
CNC(=O)NCCN1CC2CCC(CC2)C1	> 10 µM
[Cl][Hg][c]1ccc(Cl)s1	3.17 µM

Query: What does the data say about its TGI? Entry: CCOC(=O)c1cc2c3c(c(C(C)=O)c(O)c2[nH]1)N(C(C)=O)CC3
Result: > 100 µM

Query: What does the data say about its TGI? Entry: Cc1cc(Nc2ncc3c(n2)N(C)C(=O)N(c2cc(NC(=O)c4cccc(C(F)(F)F)c4)ccc2C)C3)n(C)n1
Result: 0.096 µM

Query: What does the data say about its TGI? Entry: O=[N+]([O-])c1cc([N+](=O)[O-])c(/C=C/c2ccc(Cl)c(Cl)c2)cc1/C=C/c1ccc(Cl)c(Cl)c1
Result: 52 µM

Query: What does the data say about its TGI? Entry: N#Cc1cc([N+](=O)[O-])ccc1NC(=O)/C(=N\NC(=O)c1ccncc1)C(c1cnc2ccc([N+](=O)[O-])cc2n1)[N+](=O)[O-] (stereo not drawn)
Result: 3.23 µM

Query: What does the data say about its TGI? Entry: CC(C)(C)[Si](C)(C)OCC1OC(n2cc(I)c(=O)[nH]c2=O)C(O[Si](C)(C)C(C)(C)C)C1O[Si](C)(C)C(C)(C)C (stereo not drawn)
Result: 45.4 µM

Query: What does the data say about its TGI? Entry: COC(=O)C(C)(C)[C@@H]1OC(=O)N(S(=O)(=O)c2c(C)cc(C)cc2C)[C@H]1C(C)C
Result: > 100 µM

Query: What does the data say about its TGI? Entry: NC(N)=NC(N)=Nc1cnccn1
Result: > 100 µM

Query: What does the data say about its TGI? Entry: N#CCCCCCOCCOCCOCCOCCOCCCCCC#N
Result: > 100 µM

Query: What does the data say about its TGI? Entry: C#C/C=C\CCCCCCCCCCCCCC/C=C\CCCCC#CC(O)C#CCCCC/C=C\CCCCCC/C=C/C(O)C#C (stereo not drawn)
Result: > 38.3 µM

Query: What does the data say about its TGI? Entry: C/C=C1\CC2C(=O)CCC2C2c3ccccc3OC12 (stereo not drawn)
Result: > 100 µM

Query: What does the data say about its TGI? Entry: O=C1C=CC2(C=C1)CCNC1=C2C(=O)c2ccccc2C1=O
Result: > 100 µM

Query: What does the data say about its TGI? Entry: O=C(O)c1cc(=O)c2c(OCC(O)COc3cccc4oc(C(=O)O)cc(=O)c34)cccc2o1
Result: > 100 µM

Query: What does the data say about its TGI? Entry: O=C1CC2(CCC3=C(O2)c2ccccc2NC(=O)C3)C(=O)c2ccccc2N1 (stereo not drawn)
Result: > 100 µM

Query: What does the data say about its TGI? Entry: Cn1c(=O)c2c(nc3sc4c(n32)C(=O)c2c(O)ccc(O)c2C4=O)n(C)c1=O
Result: 6.48 µM

Query: What does the data say about its TGI? Entry: COc1cc(/C(=C2/O[C@@H]([C@H]3COC(C)(C)O3)[C@H]3OC(C)(C)O[C@@H]23)c2ccc3ccccc3c2)cc(OC)c1OC
Result: 23.8 µM
